- Experimental Target: SMARCA2 (Homo sapiens, UniProt P51531)
- Construct: endogenous in cells
- Sequence (P51531 whole entry): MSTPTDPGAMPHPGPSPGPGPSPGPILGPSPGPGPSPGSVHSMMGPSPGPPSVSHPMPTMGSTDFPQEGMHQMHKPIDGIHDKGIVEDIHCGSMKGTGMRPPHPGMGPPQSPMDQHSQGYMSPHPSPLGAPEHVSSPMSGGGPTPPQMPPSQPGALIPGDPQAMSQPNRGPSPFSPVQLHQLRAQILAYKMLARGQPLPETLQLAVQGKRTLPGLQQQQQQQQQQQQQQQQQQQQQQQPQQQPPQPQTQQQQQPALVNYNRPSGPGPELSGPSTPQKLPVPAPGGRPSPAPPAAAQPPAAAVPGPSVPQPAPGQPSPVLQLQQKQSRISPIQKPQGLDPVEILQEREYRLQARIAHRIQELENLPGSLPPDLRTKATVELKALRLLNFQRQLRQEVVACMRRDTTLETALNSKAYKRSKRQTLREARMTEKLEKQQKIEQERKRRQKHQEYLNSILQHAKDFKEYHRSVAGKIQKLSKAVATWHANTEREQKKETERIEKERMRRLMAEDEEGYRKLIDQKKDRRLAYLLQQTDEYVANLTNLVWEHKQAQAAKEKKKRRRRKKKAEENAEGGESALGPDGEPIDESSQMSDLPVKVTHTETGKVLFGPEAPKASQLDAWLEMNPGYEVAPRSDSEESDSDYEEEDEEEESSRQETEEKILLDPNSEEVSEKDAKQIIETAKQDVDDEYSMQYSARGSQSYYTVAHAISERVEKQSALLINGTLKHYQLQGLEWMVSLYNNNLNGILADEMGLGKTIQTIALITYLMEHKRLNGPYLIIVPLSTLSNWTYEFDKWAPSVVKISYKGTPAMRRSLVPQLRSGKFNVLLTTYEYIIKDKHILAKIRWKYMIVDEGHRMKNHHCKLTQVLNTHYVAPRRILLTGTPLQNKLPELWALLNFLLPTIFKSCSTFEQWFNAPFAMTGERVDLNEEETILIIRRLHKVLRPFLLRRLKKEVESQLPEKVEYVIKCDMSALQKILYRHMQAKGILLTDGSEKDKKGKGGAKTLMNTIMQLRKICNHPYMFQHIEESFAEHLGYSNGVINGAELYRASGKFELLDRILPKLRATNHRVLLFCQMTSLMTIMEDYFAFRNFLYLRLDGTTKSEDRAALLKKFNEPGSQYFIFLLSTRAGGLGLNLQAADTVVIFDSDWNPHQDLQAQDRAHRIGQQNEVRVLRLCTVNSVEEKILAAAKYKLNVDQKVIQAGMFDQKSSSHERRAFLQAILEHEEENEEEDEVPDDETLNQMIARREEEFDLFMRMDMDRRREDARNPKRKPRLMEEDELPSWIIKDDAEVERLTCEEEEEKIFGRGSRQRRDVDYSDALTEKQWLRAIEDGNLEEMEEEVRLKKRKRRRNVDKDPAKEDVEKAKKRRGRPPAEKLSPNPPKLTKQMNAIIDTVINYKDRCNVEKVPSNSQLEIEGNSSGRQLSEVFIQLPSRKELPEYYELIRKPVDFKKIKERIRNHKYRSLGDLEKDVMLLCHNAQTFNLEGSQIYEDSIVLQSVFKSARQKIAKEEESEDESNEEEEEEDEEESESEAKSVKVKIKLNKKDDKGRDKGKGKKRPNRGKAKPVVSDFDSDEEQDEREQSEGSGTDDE
- Assay Details: SMARCA2 HiBiT degradation assay (cellular)
- Format: cell-based
- Test Settings: SMARCA2 HiBiT cells, luminescence readout, 11-point titration from 10 μM, 6 hours or 16 hours; read-out: HiBit A549 SMARCA2 IP
Recorded Metric: log10 DC50 (log10 of the value in nM)
Field: value | Transform: log10 | Quantity: DC50 | Unit: nM

# count of solved cases: 5
INSERT INTO results (compound, recorded_metric, experimental_result) VALUES
  ('Cc1ncsc1-c1ccc([C@H](C)NC(=O)[C@@H]2C[C@@H](O)CN2C(=O)[C@@H](NC(=O)CCCCCCCCCC(=O)N2CCN(CCOc3cccc(N4C5CCC4CN(c4cc(-c6ccccc6O)nnc4N)C5)c3)CC2)C(C)(C)C)cc1', 'log10 DC50', 1.86),
  ('Cc1ncsc1-c1ccc([C@H](C)NC(=O)[C@@H]2C[C@@H](O)CN2C(=O)[C@@H](NC(=O)CCCCCCCCCCC(=O)N2CCN(CCOc3cccc(N4CCCC(Oc5cc(-c6ccccc6O)nnc5N)C4)c3)CC2)C(C)(C)C)cc1 (mixture of isomers)', 'log10 DC50', 2.62),
  ('Cc1ncsc1-c1ccc([C@H](C)NC(=O)[C@@H]2C[C@@H](O)CN2C(=O)[C@@H](NC(=O)CCCCCCCCC(=O)N2CCN(c3ccc(N4CCCC(Oc5cc(-c6ccccc6O)nnc5N)C4)cc3)CC2)C(C)(C)C)cc1 (mixture of isomers)', 'log10 DC50', 1.86),
  ('Cc1ncsc1-c1ccc([C@H](C)NC(=O)[C@@H]2C[C@@H](O)CN2C(=O)[C@@H](NC(=O)CCCCCCCCC(=O)N2CCN(CCOc3cccc(N4CCCC(Oc5cc(-c6ccccc6O)nnc5N)C4)c3)CC2)C(C)(C)C)cc1 (mixture of isomers)', 'log10 DC50', 2.72),
  ('Cc1ncsc1-c1ccc([C@H](C)NC(=O)[C@@H]2C[C@@H](O)CN2C(=O)[C@@H](NC(=O)CCCCCC(=O)N2CCN(Cc3cccc(CCOc4cc(-c5ccccc5O)nnc4N)c3)CC2)C(C)(C)C)cc1', 'log10 DC50', 2.97);

Recall the recorded log10 DC50 for Cc1ncsc1-c1ccc([C@H](C)NC(=O)[C@@H]2C[C@@H](O)CN2C(=O)[C@@H](NC(=O)CCCCCC(=O)N2CCN(c3ccc(CN4CCCC(Oc5cc(-c6ccccc6O)nnc5N)C4)cc3)CC2)C(C)(C)C)cc1 (mixture of isomers) with SMARCA2 (Homo sapiens, UniProt P51531) and state it.
2.54

What about Cc1ncsc1-c1ccc(CNC(=O)[C@@H]2C[C@@H](O)CN2C(=O)[C@H](C(C)C)N2Cc3ccccc3C2=O)c(OCCCCCCCCCCC(=O)N2CCN(CCOc3cccc(N4C5CCC4CN(c4cc(-c6ccccc6O)nnc4N)C5)c3)CC2)c1 ?
3.06

What about Cc1ncsc1-c1ccc(CNC(=O)[C@@H]2C[C@@H](O)CN2C(=O)[C@@H](NC(=O)CCCCCCCCC(=O)N2CCN(c3ccc(N4CCCC(Oc5cc(-c6ccccc6N)nnc5N)C4)cc3)CC2)C(C)(C)C)cc1 (some centres unmarked) ?
3.00
